# assay.overview: Protein binding in plasma (unknown origin)
# Format: ADME, cell-free
# condition.notes: read-out: PPB (converted)
endpoint.name: fraction unbound

Some compounds with known fraction unbound results, for comparison:
1) O=C1COCCN1c1ccc(Nc2nc(Cl)nc(N3CCCC3)n2)cc1 :: 0.143
2) COC(=O)[C@@H](N)Cc1cn(-c2nc(Cl)nc(N3CCCCC3)n2)c2ccccc12 :: 0.149

A. COC(=O)[C@@H](N)Cc1cn(-c2nc(Cl)nc(Nc3ccc(N4CCOCC4=O)cc3)n2)c2ccccc12
B. N[C@@H](Cc1cn(-c2nc(Cl)nc(N3CCOCC3)n2)c2ccccc12)C(=O)O
*Q* Between the entries labelled A and B , which has a larger fraction unbound value on record? Bench note: the answer is the label of the chosen record.
*A* B
(B: 0.324, A: 0.124)

====

# assay.overview: Ratio of drug level in brain to blood (unknown origin)
# Format: ADME, tissue-based
# condition.notes: read-out: BBR
endpoint.name: Kp

A. O=C1COCCN1c1ccc(Nc2nc(Cl)nc(N3CCCC3)n2)cc1
B. COC(=O)[C@@H](N)Cc1cn(-c2nc(Cl)nc(Nc3ccc(N4CCOCC4=O)cc3)n2)c2ccccc12
*Q* Between the entries labelled A and B , which has a larger Kp value on record? Bench note: the answer is the label of the chosen record.
*A* B

====

# assay.overview: Drug absorption in human intestine
# Format: ADME, tissue-based
# condition.notes: read-out: Drug absorption
endpoint.name: Fa (%)

1. COC(=O)[C@@H](N)Cc1cn(-c2nc(Cl)nc(N3CCCCC3)n2)c2ccccc12 :: 98.2
2. COC(=O)[C@@H](N)Cc1cn(-c2nc(Cl)nc(Nc3ccc(N4CCOCC4=O)cc3)n2)c2ccccc12 :: 97.2
3. O=C1COCCN1c1ccc(Nc2nc(Cl)nc(N3CCCC3)n2)cc1 :: 96.8
4. N[C@@H](Cc1cn(-c2nc(Cl)nc(N3CCOCC3)n2)c2ccccc12)C(=O)O :: 96.9

====

# test.target: Prostaglandin G/H synthase 1 (Ovis aries)
# Sequence (P05979 whole entry): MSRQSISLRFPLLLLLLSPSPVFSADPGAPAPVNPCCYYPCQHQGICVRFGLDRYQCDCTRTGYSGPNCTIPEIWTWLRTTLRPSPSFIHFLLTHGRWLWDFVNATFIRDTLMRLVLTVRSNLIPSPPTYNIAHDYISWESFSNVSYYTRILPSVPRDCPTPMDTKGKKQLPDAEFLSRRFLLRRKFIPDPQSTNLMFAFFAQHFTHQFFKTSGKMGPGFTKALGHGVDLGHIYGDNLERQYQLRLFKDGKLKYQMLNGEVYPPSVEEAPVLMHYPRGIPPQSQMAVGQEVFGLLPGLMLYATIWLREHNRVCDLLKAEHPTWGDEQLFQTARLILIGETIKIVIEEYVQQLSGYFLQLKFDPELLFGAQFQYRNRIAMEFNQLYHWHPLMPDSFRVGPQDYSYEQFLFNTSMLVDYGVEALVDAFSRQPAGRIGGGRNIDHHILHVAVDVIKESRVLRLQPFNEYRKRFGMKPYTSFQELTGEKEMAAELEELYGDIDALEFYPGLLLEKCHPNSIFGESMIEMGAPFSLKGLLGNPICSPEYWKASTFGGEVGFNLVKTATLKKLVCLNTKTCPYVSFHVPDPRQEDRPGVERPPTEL
pIC50: −log10 of the molar value.
Reported pIC50 is given for each of the following molecules.

Some molecules with known pIC50 results, for comparison:
1) COC(=O)[C@H](Cc1ccccc1)n1cc(COc2nc(Cl)nc(N3CCCC3)n2)nn1 :: < 5.00
2) COC(=O)[C@H](Cc1c[nH]c2ccccc12)n1cc(COc2nc(Cl)nc(N3CCCCC3)n2)nn1 :: < 5.00
3) COC(=O)[C@@H](N)Cc1ccc(Oc2nc(Cl)nc(N3CCCCC3)n2)cc1 :: < 5.00
4) Clc1nc(OCc2cn(Cc3ccccc3)nn2)nc(N2CCOCC2)n1 :: < 5.00
5) COC(=O)[C@H](Cc1ccc(O)cc1)n1cc(COc2nc(Cl)nc(Nc3ccc(N4CCOCC4=O)cc3)n2)nn1 :: < 5.00

*Q* # query: pIC50 | item COC(=O)[C@H](Cc1c[nH]c2ccccc12)n1cc(COc2nc(Cl)nc(N3CCOCC3)n2)nn1 | system: Prostaglandin G/H synthase 1 (Ovis aries)
*A* < 5.00

*Q* # query: pIC50 | item Clc1nc(OCc2cn(Cc3ccccc3)nn2)nc(N2CCCC2)n1 | system: Prostaglandin G/H synthase 1 (Ovis aries)
*A* 5.10

*Q* # query: pIC50 | item COC(=O)[C@@H](N)Cc1cn(-c2nc(Cl)nc(N3CCCCC3)n2)c2ccccc12 | system: Prostaglandin G/H synthase 1 (Ovis aries)
*A* < 5.00

*Q* # query: pIC50 | item O=C1COCCN1c1ccc(Nc2nc(Cl)nc(N3CCCC3)n2)cc1 | system: Prostaglandin G/H synthase 1 (Ovis aries)
*A* < 5.00
